Source: PubChem BioAssay (NCI)

Consider the following compounds and their measured growth readings.
# Tested on: HS 578T breast
# ASSAY INFO: NCI-60 one-dose screen, 48 h (100 = growth as untreated, 0 = no growth, -100 = all killed)
# CONDITION DETAILS: 10 µM unless noted
This is part of a sample that, as a whole, favours compounds with a hit. Of some 83,000 tested, about 20% had one in any assay.
Dear colleague, please return just the value in %, with no unit written.

Field: example entries. Status: answers known.
INSERT INTO measurements (compound, measured_metric, reported_value) VALUES
  ('C/C(CC(C)(C)N1CC1)=N\NC(=O)Nc1cccc2ccccc12', 'growth', 79.8),
  ('CCCCCCCC[n+]1ccc2ccccc2c1', 'growth', 76.1),
  ('CCCC(C)C1(CC)C(=O)NC(=O)N(C)C1=O (stereo not given)', 'growth', 99.4),
  ('O=C(CC1(O)C(=O)N(Cc2ccccc2)c2ccccc21)c1ccc(C(=O)NCC2CCC3(CC2)OOC2(CCCCC2)OO3)cc1 (stereo not given)', 'growth', -6.26),
  ('CC(=O)Nc1ccc(NC(=O)c2ccc([As](O)O)cc2)cc1', 'growth', 117);

Would you kindly share the measured growth for `CC(=O)c1ccc(C(=O)NCC2CCC3(CC2)OOC2(CCCCC2)OO3)cc1` ? 102

# lookup: growth of `Fc1ccc2c(c1)c(-c1nc(-c3c[nH]c4ncccc34)cs1)cn2CCCCN1CCCCC1` -28.6

Entry `CC(C)[C@@H]1NC(=O)[C@]2(C)CSC(=N2)c2csc(n2)CNC(=O)C[C@@H](/C=C/CCS)OC1=O` has what growth? 7.81

What growth value was documented for this compound, CC(CC1CCCCC1)NCc1ccccc1 (stereo not given) ? 98.5

May I ask what growth has been recorded for `Brc1ccc2c(c1)c(-c1nc(-c3c[nH]c4ncccc34)cs1)cn2CCN1CCOCC1` ? 66.8
